Answer each item with its documented inhibition at 10 µM.
target: recombinant human mPGES-1 (Homo sapiens, UniProt O14684); construct: made in house; host or cells: Rosetta E. coli (microsomal/membrane fraction); assay: mPGES-1 inhibition test (microsomes, PGH2 substrate, HTRF detection of PGE2); assay type: biochemical; conditions: inhibition of mPGES-1 at 10 μM
Sequence (O14684 whole entry): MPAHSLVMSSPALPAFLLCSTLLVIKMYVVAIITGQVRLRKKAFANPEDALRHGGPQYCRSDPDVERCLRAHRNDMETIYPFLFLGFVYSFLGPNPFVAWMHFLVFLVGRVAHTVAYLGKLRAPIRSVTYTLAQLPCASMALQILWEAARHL
Numbers only; they are read as %.

Exercise: Please give the measured inhibition at 10 µM for this compound: `Cn1c(Nc2c(Cl)cccc2Cl)nc2cc(C(=O)NCCCC3CC3)c(F)cc21`
Solution: 96

Exercise: Please give the measured inhibition at 10 µM for this compound: `COc1ccnc(CNC(=O)c2cc3nc(Nc4c(Cl)cccc4Cl)n(C)c3cc2F)c1`
Solution: 81

Exercise: Please give the measured inhibition at 10 µM for this compound: `Cn1c(Nc2c(Cl)cccc2Cl)nc2cc(C(=O)Nc3ccc(S(C)(=O)=O)cc3)ccc21`
Solution: 73

Exercise: Please give the measured inhibition at 10 µM for this compound: `O=C(Nc1cc(Cl)ccn1)c1ccc2c(c1)nc(Nc1c(Cl)cccc1Cl)n2CCC(=O)N1CCOCC1`
Solution: 90

Exercise: Please give the measured inhibition at 10 µM for this compound: `O=C(Nc1cccc(Cl)c1)c1cc2[nH]c(Nc3c(Cl)cccc3Cl)nc2cc1F`
Solution: 100

Exercise: Please give the measured inhibition at 10 µM for this compound: `O=C(NC1CCCCC1)c1cc(Br)c2[nH]c(Nc3c(Cl)cccc3Cl)nc2c1`
Solution: 95

Exercise: Please give the measured inhibition at 10 µM for this compound: `COc1cccnc1CNC(=O)c1cc2nc(Nc3c(Cl)cccc3Cl)n(C)c2cc1F`
Solution: 93

Exercise: Please give the measured inhibition at 10 µM for this compound: `Cc1cccc(Cl)c1Nc1nc2cc(C(=O)Nc3ccc(Br)cc3)ccc2n1C`
Solution: 100

Exercise: Please give the measured inhibition at 10 µM for this compound: `CNC(=O)c1ccc(Nc2nc3cc(C(=O)Nc4ccc(Br)cc4)ccc3n2C)c(Cl)c1`
Solution: 44

Exercise: Please give the measured inhibition at 10 µM for this compound: `CN(C)c1cccnc1CNC(=O)c1cc2nc(Nc3c(Cl)cccc3Cl)n(C)c2cc1F`
Solution: 100

Exercise: Please give the measured inhibition at 10 µM for this compound: `COc1cc2[nH]c(Nc3c(Cl)cc(F)cc3Cl)nc2cc1C(=O)N[C@H]1CC[C@H](C(F)(F)F)CC1`
Solution: 100

Exercise: Please give the measured inhibition at 10 µM for this compound: `Cc1cnc(CNC(=O)c2cc3nc(Nc4c(Cl)cccc4Cl)n(C)c3cc2F)c(C)c1`
Solution: 100

Exercise: Please give the measured inhibition at 10 µM for this compound: `Cc1ccc(NC(=O)c2ccc3[nH]c(Nc4c(Cl)cccc4Cl)nc3c2)cc1`
Solution: 100

Exercise: Please give the measured inhibition at 10 µM for this compound: `CC(C)[C@H]1CC[C@H](NC(=O)c2cc3nc(Nc4c(F)cccc4Cl)n(C)c3cc2F)CC1`
Solution: 100

Exercise: Please give the measured inhibition at 10 µM for this compound: `CC(C)Oc1cc2[nH]c(Nc3c(Cl)ccc(Cl)c3F)nc2cc1C(=O)NC1CCC(C)(C)CC1`
Solution: 91

Exercise: Please give the measured inhibition at 10 µM for this compound: `CC(C)NC(=O)c1cc(Br)c2[nH]c(Nc3c(Cl)cccc3Cl)nc2c1`
Solution: 84

Exercise: Please give the measured inhibition at 10 µM for this compound: `Cc1nc(NC(=O)c2ccc3[nH]c(Nc4c(Cl)cccc4Cl)nc3c2)ccc1Br`
Solution: 97
